# TESTED_SYSTEM: UniProt:P00915
# Sequence (P00915 2-261 limits assumed): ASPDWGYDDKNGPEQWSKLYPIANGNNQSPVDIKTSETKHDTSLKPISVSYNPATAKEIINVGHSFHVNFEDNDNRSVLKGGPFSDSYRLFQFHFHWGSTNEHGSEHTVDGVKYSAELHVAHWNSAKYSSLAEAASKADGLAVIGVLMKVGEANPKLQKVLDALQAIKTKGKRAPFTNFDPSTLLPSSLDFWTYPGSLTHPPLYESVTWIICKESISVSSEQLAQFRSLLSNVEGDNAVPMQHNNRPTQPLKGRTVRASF
# EXPERIMENTAL_PROTOCOL: Activation of […] human carbonic anhydrase-1 incubated for 15 mins prior to testing by stopped-flow CO2 hydrase assay
READOUT_KIND: log10 KA (log10 of the value in µM)

>>> assay_value("CC(C)(C)OC(=O)NCCc1nc[nH]c1I")
1.47
>>> assay_value("COC(=O)[C@@H](N)Cc1nc[nH]c1I")
-2.92
>>> assay_value("NCCc1nc(Br)[nH]c1Br")
-1.92
>>> assay_value("COC(=O)[C@H](Cc1nc(Cl)[nH]c1Cl)NC(=O)OC(C)(C)C")
0.39
>>> assay_value("COC(=O)[C@H](Cc1nc[nH]c1Br)NC(=O)CCN")
0.32
>>> assay_value("COC(=O)[C@H](Cc1nc[nH]c1Cl)NC(=O)CCNC(=O)OC(C)(C)C")
1.54
>>> assay_value("COC(=O)[C@H](Cc1nc[nH]c1Cl)NC(=O)CCN")
0.10
>>> assay_value("COC(=O)[C@H](Cc1nc(Cl)[nH]c1Cl)NC(=O)CCNC(=O)OC(C)(C)C")
1.00
>>> assay_value("NCCc1nc[nH]c1I")
-3.05
>>> assay_value("COC(=O)[C@@H](N)Cc1nc(Cl)[nH]c1Cl")
1.49
>>> assay_value("CC(C)(C)OC(=O)NCCc1nc(I)[nH]c1I")
1.08
>>> assay_value("CC(C)(C)OC(=O)NCCc1nc(Cl)[nH]c1Cl")
1.22
>>> assay_value("COC(=O)[C@@H](N)Cc1nc(Br)[nH]c1Br")
0.15
>>> assay_value("CC(C)(C)OC(=O)NCCc1nc[nH]c1Br")
0.85
>>> assay_value("COC(=O)[C@H](Cc1nc(Br)[nH]c1Br)NC(=O)CCN")
1.49
>>> assay_value("NCCc1nc[nH]c1Cl")
-1.68
>>> assay_value("CC(C)(C)OC(=O)NCCc1nc(Br)[nH]c1Br")
1.12
>>> assay_value("NCCc1nc[nH]c1Br")
-1.82
>>> assay_value("COC(=O)[C@H](Cc1nc[nH]c1I)NC(=O)CCNC(=O)OC(C)(C)C")
0.63
>>> assay_value("COC(=O)[C@H](Cc1nc[nH]c1Br)NC(=O)OC(C)(C)C")
0.86
>>> assay_value("COC(=O)[C@H](Cc1c[nH]cn1)NC(=O)CCN")
1.04
>>> assay_value("COC(=O)[C@@H](N)Cc1c[nH]cn1")
-1.70
>>> assay_value("COC(=O)[C@H](Cc1nc[nH]c1Br)NC(=O)CCNC(=O)OC(C)(C)C")
0.41
>>> assay_value("COC(=O)[C@@H](N)Cc1nc(I)[nH]c1I")
-0.02
>>> assay_value("NCCc1nc(Cl)[nH]c1Cl")
-1.74
>>> assay_value("COC(=O)[C@H](Cc1nc(I)[nH]c1I)NC(=O)CCNC(=O)OC(C)(C)C")
1.27
>>> assay_value("COC(=O)[C@H](Cc1nc(Cl)[nH]c1Cl)NC(=O)CCN")
1.35
>>> assay_value("COC(=O)[C@@H](N)Cc1nc[nH]c1Br")
1.13
>>> assay_value("COC(=O)[C@H](Cc1nc(I)[nH]c1I)NC(=O)CCN")
1.33
>>> assay_value("COC(=O)[C@H](Cc1nc(I)[nH]c1I)NC(=O)OC(C)(C)C")
-2.82
>>> assay_value("COC(=O)[C@@H](N)Cc1nc[nH]c1Cl")
1.33
>>> assay_value("COC(=O)[C@H](Cc1nc[nH]c1I)NC(=O)OC(C)(C)C")
-3.05
>>> assay_value("COC(=O)[C@H](Cc1nc[nH]c1I)NC(=O)CCN")
0.88
>>> assay_value("CC(C)(C)OC(=O)NCCc1nc[nH]c1Cl")
0.73
>>> assay_value("COC(=O)[C@H](Cc1nc(Br)[nH]c1Br)NC(=O)OC(C)(C)C")
-1.49
>>> assay_value("COC(=O)[C@H](Cc1nc[nH]c1Cl)NC(=O)OC(C)(C)C")
1.00
>>> assay_value("COC(=O)[C@H](Cc1nc(Br)[nH]c1Br)NC(=O)CCNC(=O)OC(C)(C)C")
1.33
>>> assay_value("NCCc1nc(I)[nH]c1I")
-3.15
